Data provenance: PubChem BioAssay AID720641

experiment: Staphylococcus aureus RN4220 growth blockers – two temperatures, LtaS inhibitor project, primary screen (AID 720641); details: S. aureus RN4220 growth, OD600, 20 h, 42 °C; measured here: growth at 30 °C; stronger effect = lower value
Screen size: about 170,000 compounds; about 900 (0.53%) were called active. The list comes from a sample in which actives are over-represented; it also holds close analogues and randomly drawn compounds.
quantityMeasured: relative growth (%)
Express the result in % but write the number alone.

{"columns": ["compound", "unitSymbol", "reported"],
 "data": [
  ["Cn1c(-c2ccc(C(=O)c3ccccc3)s2)nc2ccccc21", "%", 95.7],
  ["CN(C)[C@@H]1C(=O)C(C(N)=O)=C(O)[C@@]2(O)C(=O)C3=C(O)c4c(O)ccc(Cl)c4[C@@H](O)[C@H]3C[C@@H]12", "%", -1],
  ["CC(=O)Oc1cccc2c1C(=O)C=CC2=O", "%", 1.59],
  ["CC(C)C(C(=O)O)n1c(=S)[nH]c2ccccc2c1=O (stereo unspecified)", "%", 94.8]
]}

Entry CCn1c(CCl)nc2cc(C(=O)O)ccc21 — recorded relative growth = 82.3

The recorded relative growth for entry Cn1c(NC(=O)c2ccccc2)nc2ccccc21 equals 0.29

relative growth recorded for this compound, CC(=O)Oc1ccc(OC(C)=O)c2c1C1C=CC2CC1 , is 99.4

Note to self: relative growth recorded for COc1ccccc1CNC(=O)CNC1CCCCC1 was 90

Value of measured relative growth for the entry Cn1c(NCc2ccccc2)nc2ccccc21 : 64.6

Entry FC(F)(F)C1CCCN(c2nsc3ccccc23)C1 (stereo unspecified) — recorded relative growth = -0.5

# relative growth of O=C(NCCSc1ccccc1)c1cccnc1Oc1ccccc1 = 76.2

relative growth in this record for Cc1ccccc1OCc1nc(C#N)c(NC(C)c2ccccc2)o1 (stereo unspecified) : 79.9
